- Study system: Sodium-dependent serotonin transporter (Rattus norvegicus)
- Sequence (P31652 whole entry): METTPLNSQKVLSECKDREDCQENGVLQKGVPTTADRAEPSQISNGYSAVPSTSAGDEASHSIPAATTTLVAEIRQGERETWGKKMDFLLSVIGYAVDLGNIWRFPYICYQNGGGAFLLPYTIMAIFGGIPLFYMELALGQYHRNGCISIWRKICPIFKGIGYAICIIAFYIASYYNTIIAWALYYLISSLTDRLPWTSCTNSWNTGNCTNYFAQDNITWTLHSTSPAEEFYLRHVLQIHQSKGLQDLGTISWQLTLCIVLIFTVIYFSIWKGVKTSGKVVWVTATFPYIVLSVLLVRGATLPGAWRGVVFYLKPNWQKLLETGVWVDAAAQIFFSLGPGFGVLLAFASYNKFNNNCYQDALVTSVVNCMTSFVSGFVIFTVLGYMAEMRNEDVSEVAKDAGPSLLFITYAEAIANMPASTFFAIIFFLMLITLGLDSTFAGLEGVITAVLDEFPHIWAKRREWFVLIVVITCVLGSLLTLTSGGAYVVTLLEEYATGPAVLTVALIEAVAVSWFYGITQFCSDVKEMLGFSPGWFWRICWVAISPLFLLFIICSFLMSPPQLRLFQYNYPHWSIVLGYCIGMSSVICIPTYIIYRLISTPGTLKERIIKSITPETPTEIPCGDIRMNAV
Readout type: Ki (nM)
One number for each entry, in nM.

What value of Ki has been recorded for this entry: COC(=O)[C@@H]1C2CC[C@H](C[C@@H]1c1ccc(I)cc1)N2C 0.46

###

- Study system: Sodium-dependent dopamine transporter (Rattus norvegicus, UniProt P23977)
- Sequence (P23977 whole entry): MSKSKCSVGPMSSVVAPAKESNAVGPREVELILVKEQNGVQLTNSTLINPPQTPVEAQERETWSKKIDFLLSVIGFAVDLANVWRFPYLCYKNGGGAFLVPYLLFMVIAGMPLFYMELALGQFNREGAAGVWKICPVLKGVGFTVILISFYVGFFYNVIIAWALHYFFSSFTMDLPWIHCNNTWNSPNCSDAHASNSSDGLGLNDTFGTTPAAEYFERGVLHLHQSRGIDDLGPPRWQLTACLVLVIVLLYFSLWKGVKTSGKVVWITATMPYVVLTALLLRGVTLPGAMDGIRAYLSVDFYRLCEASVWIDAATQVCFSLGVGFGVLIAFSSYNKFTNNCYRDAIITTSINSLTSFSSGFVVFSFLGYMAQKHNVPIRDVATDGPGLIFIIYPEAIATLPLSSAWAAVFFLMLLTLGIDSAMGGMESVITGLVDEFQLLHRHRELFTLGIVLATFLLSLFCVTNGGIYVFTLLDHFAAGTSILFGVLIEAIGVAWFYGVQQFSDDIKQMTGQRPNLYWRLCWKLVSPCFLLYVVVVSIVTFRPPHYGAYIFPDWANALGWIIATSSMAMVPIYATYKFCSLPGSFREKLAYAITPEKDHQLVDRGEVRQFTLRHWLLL
Readout type: pKi
Give bare numbers, as −log10 of the molar value.

What value of pKi has been recorded for this entry: COC(=O)[C@@H]1C2CC[C@H](C[C@@H]1c1ccc(I)cc1)N2C 9.02

###

Measured log10 of Ki (Norepinephrine transporter (Rattus norvegicus))
Form field - Quantity: Ki; Unit: nM; Scale: log10

1. COC(=O)C1C(c2ccc(-c3cccc([N+](=O)[O-])c3)cc2)CC2CCC1N2C (stereo not given) = 2.98
2. COC(=O)C1C(c2ccc(-c3ccc([N+](=O)[O-])cc3)cc2)CC2CCC1N2C (stereo not given) = 2.57
3. COC(=O)C1C(c2ccc(-c3ccc(C(C)=O)cc3)cc2)CC2CCC1N2C (stereo not given) = 2.88
4. COC(=O)[C@@H]1C2CC[C@H](C[C@@H]1c1ccc(I)cc1)N2C = 0.45
5. COC(=O)C1C(c2ccc(-c3ccc(OC)cc3)cc2)CC2CCC1N2C (stereo not given) = 2.55

What value of log10 of Ki has been recorded for this entry: COC(=O)C1C(c2ccc(-c3ccccc3OC)cc2)CC2CCC1N2C (stereo not given) 4.00

###

Measured Ki (Norepinephrine transporter (Rattus norvegicus))

In the examples that follow, each entry is paired with its recorded Ki.
1. COC(=O)C1C(c2ccc(-c3ccccc3[N+](=O)[O-])cc2)CC2CCC1N2C (centres undefined) = > 3 µM
2. COC(=O)C1C(c2ccc(-c3cccc(C(C)=O)c3)cc2)CC2CCC1N2C (centres undefined) = > 50 µM
3. COC(=O)C1C(c2ccc(-c3ccccc3C(C)=O)cc2)CC2CCC1N2C (centres undefined) = > 20 µM

Now examine the next entry.
What value of Ki has been recorded for this entry: COC(=O)C1C(c2ccc(-c3cccc(OC)c3)cc2)CC2CCC1N2C (centres undefined) > 3 µM
